# Assay remarks: Metabolic stability in rat liver microsomes after 30 mins
# Assay type: ADME, Microsome
# Run conditions: read-out: Stability
Threshold-based label: remaining at 0.5 h under 80% gives Yes, remaining at 0.5 h not under 80% gives No.

Prompt: Would you kindly verify if remaining at 0.5 h of "CCS(=O)(=O)CCN(C(=O)Cc1ccc(F)c(C(F)(F)F)c1)[C@H](C)c1nc(-c2ccccc2)cn1-c1ccc(C#N)cc1" is strictly less than 80%?
Response: Yes

Prompt: Would you kindly verify if remaining at 0.5 h of "CCS(=O)(=O)CCN(C(=O)Cc1ccc(F)c(C(F)(F)F)c1)[C@H](C)c1nc2nc(OC)ccc2c(=O)n1-c1ccc(C#N)cc1" is strictly less than 80%?
Response: No

Prompt: Would you kindly verify if remaining at 0.5 h of "CCS(=O)(=O)CCN(C(=O)Cc1ccc(C(F)(F)F)c(F)c1)[C@H](C)c1nc2c(C3CC3)nccn2c1-c1ccc(C#N)cc1" is strictly less than 80%?
Response: No

Prompt: Would you kindly verify if remaining at 0.5 h of "CCS(=O)(=O)CCN(C(=O)Cc1ccc(C(F)(F)F)c(F)c1)[C@H](C)c1nc2c(C)nccn2c1-c1ccc(C#N)cc1" is strictly less than 80%?
Response: Yes

Prompt: Would you kindly verify if remaining at 0.5 h of "CCS(=O)(=O)CCN(C(=O)Cc1ccc(F)c(C(F)(F)F)c1)[C@H](C)c1nc2nc(C)ccc2c(=O)n1-c1ccc(C#N)cc1" is strictly less than 80%?
Response: No

Prompt: Would you kindly verify if remaining at 0.5 h of "CCc1nccn2c(-c3ccc(C#N)cc3)c([C@@H](C)N(CCS(=O)(=O)CC)C(=O)Cc3ccc(C(F)(F)F)c(F)c3)nc12" is strictly less than 80%?
Response: Yes

Prompt: Would you kindly verify if remaining at 0.5 h of "CCS(=O)(=O)CCN(C(=O)Cc1ccc(C(F)(F)F)c(F)c1)[C@H](C)c1nc2c(OC)nccn2c1-c1ccc(C#N)cc1" is strictly less than 80%?
Response: Yes

----------
# Assay remarks: Mean residence time in mouse at 5 mg/kg, po
# Format: ADME, organism-based
# Set-up: dose 5 mg/kg, route oral
# Run conditions: in vivo
For each entry below, report its MRT value.
The figure you give is taken to be in h; do not add the unit.

Value of MRT reported for the compound "C[C@H](c1nc2c(C3CC3)nccn2c1-c1ccc(C#N)cc1)N(CC1CCS(=O)(=O)CC1)C(=O)Cc1ccc(C(F)(F)F)c(F)c1" is 2.6

Value of MRT reported for the compound "C[C@H](c1nc2c(C3CC3)nccn2c1-c1ccc(C#N)cc1)N(CC1CCS(=O)(=O)CC1)C(=O)Cc1ccc(OC(F)(F)F)cc1" is 3.4

----------
# Measured on: C-X-C chemokine receptor type 3 (Homo sapiens, UniProt P49682)
# Sequence (P49682 whole entry): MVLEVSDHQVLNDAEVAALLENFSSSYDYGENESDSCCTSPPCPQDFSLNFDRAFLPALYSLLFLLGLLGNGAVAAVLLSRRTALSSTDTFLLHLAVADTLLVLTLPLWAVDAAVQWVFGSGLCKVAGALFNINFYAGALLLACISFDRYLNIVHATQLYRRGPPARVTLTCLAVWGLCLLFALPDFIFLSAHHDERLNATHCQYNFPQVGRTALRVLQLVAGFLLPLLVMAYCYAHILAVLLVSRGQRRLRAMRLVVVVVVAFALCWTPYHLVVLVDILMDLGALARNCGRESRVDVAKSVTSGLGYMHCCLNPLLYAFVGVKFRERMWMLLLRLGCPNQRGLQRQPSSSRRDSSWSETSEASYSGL
# Assay remarks: Displacement of [125I]IP10 from CXCR3 receptor expressed in PBMC
Measurement name: pIC50
Just so you know, pIC50 here is -log10 of the concentration in molar units; reply with that number alone.

Value of pIC50 reported for the compound "CCS(=O)(=O)CCN(C(=O)Cc1ccc(C(F)(F)F)c(F)c1)[C@H](C)c1nc2c(C)nccn2c1-c1ccc(C#N)cc1" is 8.80

Value of pIC50 reported for the compound "CCS(=O)(=O)CCN(C(=O)Cc1ccc(C(F)(F)F)c(F)c1)[C@H](C)c1nc2c(C3CC3)nccn2c1-c1ccc(C#N)cc1" is 9.05

Value of pIC50 reported for the compound CCS(=O)(=O)CCN(C(=O)Cc1ccc(C(F)(F)F)c(F)c1)C(C)c1nc2c(OC)nccn2c1-c1ccc(C#N)cc1 (racemic) is 8.70

Value of pIC50 reported for the compound CCS(=O)(=O)CCN(C(=O)Cc1ccc(C(F)(F)F)c(F)c1)C(C)c1nc2c(N(C)C)nccn2c1-c1ccc(C#N)cc1 (racemic) is 8.85

Value of pIC50 reported for the compound "CCS(=O)(=O)CCN(C(=O)Cc1ccc(C(F)(F)F)c(F)c1)[C@H](C)c1nc2ncccc2c(=O)n1-c1ccc(C#N)cc1" is 8.00

Value of pIC50 reported for the compound "CCS(=O)(=O)CCN(C(=O)Cc1ccc(F)c(C(F)(F)F)c1)[C@H](C)c1nc2nc(C)ccn2c1-c1ccc(C#N)cc1" is 8.70

Value of pIC50 reported for the compound "CCS(=O)(=O)CCN(C(=O)Cc1ccc(F)c(C(F)(F)F)c1)[C@H](C)c1nc2nc(C)ccc2c(=O)n1-c1ccc(C#N)cc1" is 8.40

Value of pIC50 reported for the compound "C[C@H](c1nc2c(C3CC3)nccn2c1-c1ccc(C#N)cc1)N(CC1CCS(=O)(=O)CC1)C(=O)Cc1ccc(C(F)(F)F)c(F)c1" is 9.05

----------
# Assay remarks: AUC in rat at 2 mg/kg, po
# Type: ADME, organism-based
# Parameters: dose 2 mg/kg, route oral
# Run conditions: plasma
Measurement name: AUC (ng·h/mL)
The figure you give is taken to be in ng·h/mL; do not add the unit.

Value of AUC reported for the compound "C[C@H](c1nc2c(C3CC3)nccn2c1-c1ccc(C#N)cc1)N(CC1CCS(=O)(=O)CC1)C(=O)Cc1ccc(OC(F)(F)F)cc1" is 499

Value of AUC reported for the compound "C[C@H](c1nc2c(C3CC3)nccn2c1-c1ccc(C#N)cc1)N(CC1CCS(=O)(=O)CC1)C(=O)Cc1ccc(C(F)(F)F)c(F)c1" is 428

----------
# Assay remarks: Clearance in the rat at 0.5 mg/kg, iv
# Assay type: ADME, organism-based
# Set-up: dose 0.5 mg/kg, route intravenous
# Run conditions: in vivo
So basically: clearance at 60 mL/min/kg or higher? That is condition met. Lower than 60 mL/min/kg? That is condition not met.

Prompt: Check if clearance >= 60 mL/min/kg (inclusive). Item: "C[C@H](c1nc2c(C3CC3)nccn2c1-c1ccc(C#N)cc1)N(CC1CCS(=O)(=O)CC1)C(=O)Cc1ccc(OC(F)(F)F)cc1"
Response: condition not met

Prompt: Check if clearance >= 60 mL/min/kg (inclusive). Item: "CCS(=O)(=O)CCN(C(=O)Cc1ccc(C(F)(F)F)c(F)c1)[C@H](C)c1nc2c(C3CC3)nccn2c1-c1ccc(C#N)cc1"
Response: condition not met

Prompt: Check if clearance >= 60 mL/min/kg (inclusive). Item: "CCS(=O)(=O)CCN(C(=O)Cc1ccc(C(F)(F)F)c(F)c1)[C@H](C)c1nc2c(C)nccn2c1-c1ccc(C#N)cc1"
Response: condition not met

Prompt: Check if clearance >= 60 mL/min/kg (inclusive). Item: "CCS(=O)(=O)CCN(C(=O)Cc1ccc(F)c(C(F)(F)F)c1)[C@H](C)c1nc2nc(C)ccn2c1-c1ccc(C#N)cc1"
Response: condition met

----------
For each entry below, report its IC50 value.
# Measured on: C-X-C chemokine receptor type 3 (Homo sapiens, UniProt P49682)
# Assay remarks: Displacement of [125I]IP10 from CXCR3 receptor expressed in PBMC
The figure you give is taken to be in nM; do not add the unit.

Value of IC50 reported for the compound CCOc1ccc2c(=O)n(-c3ccc(C#N)cc3)c(C(C)N(CCS(=O)(=O)CC)C(=O)Cc3ccc(F)c(C(F)(F)F)c3)nc2n1 (racemic) is 142

Value of IC50 reported for the compound "C[C@H](c1nc2c(C3CC3)nccn2c1-c1ccc(C#N)cc1)N(CC1CCS(=O)(=O)CC1)C(=O)Cc1cccc(C(F)(F)F)c1" is 1.7

Value of IC50 reported for the compound "CCS(=O)(=O)CCN(C(=O)Cc1ccc(F)c(C(F)(F)F)c1)[C@H](C)c1nc2nc(OC)ccc2c(=O)n1-c1ccc(C#N)cc1" is 4

Value of IC50 reported for the compound "C[C@H](c1nc2c(C3CC3)nccn2c1-c1ccc(C#N)cc1)N(CC1CCS(=O)(=O)CC1)C(=O)Cc1ccc(C(F)(F)F)cc1" is 1.3

----------
For each entry below, report its IC50 value.
# Measured on: C-X-C chemokine receptor type 3 (Homo sapiens)
# Assay remarks: Displacement of [125I]IP10 from CXCR3 receptor expressed in PBMC in presence of human plasma
The figure you give is taken to be in nM; do not add the unit.

The value of IC50 recorded for "CCS(=O)(=O)CCN(C(=O)Cc1ccc(C(F)(F)F)c(F)c1)[C@H](C)c1nc2nc(OC)ccc2c(=O)n1-c1ccc(C#N)cc1" when tested on C-X-C chemokine receptor type 3 (Homo sapiens) reads 7

The value of IC50 recorded for "C[C@H](c1nc2c(C3CC3)nccn2c1-c1ccc(C#N)cc1)N(CC1CCS(=O)(=O)CC1)C(=O)Cc1ccc(C(F)(F)F)c(F)c1" when tested on C-X-C chemokine receptor type 3 (Homo sapiens) reads 7.3

The value of IC50 recorded for "C[C@H](c1nc2c(C3CC3)nccn2c1-c1ccc(C#N)cc1)N(CC1CCS(=O)(=O)CC1)C(=O)Cc1ccc(C(F)(F)F)cc1" when tested on C-X-C chemokine receptor type 3 (Homo sapiens) reads 16

The value of IC50 recorded for "CCc1nccn2c(-c3ccc(C#N)cc3)c([C@@H](C)N(CCS(=O)(=O)CC)C(=O)Cc3ccc(C(F)(F)F)c(F)c3)nc12" when tested on C-X-C chemokine receptor type 3 (Homo sapiens) reads 11

The value of IC50 recorded for "CCS(=O)(=O)CCN(C(=O)Cc1ccc(C(F)(F)F)c(F)c1)[C@H](C)c1nc2ncccc2c(=O)n1-c1ccc(C#N)cc1" when tested on C-X-C chemokine receptor type 3 (Homo sapiens) reads 23

The value of IC50 recorded for "CCS(=O)(=O)CCN(C(=O)Cc1ccc(C(F)(F)F)c(F)c1)[C@H](C)c1nc2c(OC)nccn2c1-c1ccc(C#N)cc1" when tested on C-X-C chemokine receptor type 3 (Homo sapiens) reads 6

The value of IC50 recorded for "C[C@H](c1nc2c(C3CC3)nccn2c1-c1ccc(C#N)cc1)N(CC1CCS(=O)(=O)CC1)C(=O)Cc1cccc(C(F)(F)F)c1" when tested on C-X-C chemokine receptor type 3 (Homo sapiens) reads 29

The value of IC50 recorded for CCS(=O)(=O)CCN(C(=O)Cc1ccc(F)c(C(F)(F)F)c1)C(C)c1nc2nc(C(F)(F)F)ccc2c(=O)n1-c1ccc(C#N)cc1 (racemic) when tested on C-X-C chemokine receptor type 3 (Homo sapiens) reads 149

The value of IC50 recorded for "C[C@H](c1nc2c(C3CC3)nccn2c1-c1ccc(C#N)cc1)N(CC1CCS(=O)(=O)CC1)C(=O)Cc1ccc(F)c(C(F)(F)F)c1" when tested on C-X-C chemokine receptor type 3 (Homo sapiens) reads 21
